// provenance: ChEMBL document CHEMBL6127030

ASSAY_REMARKS: AUC (0 to last) in BALB/c mouse at 10 mg/kg, po measured upto 24 hrs by LC-MS/MS analysis
Assay type: ADME, organism-based
STUDY_CONDITIONS: in vivo
OBSERVABLE: AUC(0-t) at 24 h (ng·h/mL)

MOLECULE	RESULT
NS(=O)(=O)c1nc2ccccc2s1	1530
NS(=O)(=O)c1nc2ccc(F)cc2s1	4360
CCOc1ccc2nc(S(N)(=O)=O)sc2c1 [ETHOXZOLAMIDE]	241
COc1ccc2nc(S(N)(=O)=O)sc2c1	792

====

ASSAY_REMARKS: Cmax in BALB/c mouse at 10 mg/kg, po measured upto 24 hrs by LC-MS/MS analysis
Format: ADME, organism-based
STUDY_CONDITIONS: in vivo
Reported Cmax values for the following molecules.
OBSERVABLE: Cmax (ng/mL)

MOLECULE	RESULT
NS(=O)(=O)c1nc2ccc(F)cc2s1	3140
COc1ccc2nc(S(N)(=O)=O)sc2c1	1920
CCOc1ccc2nc(S(N)(=O)=O)sc2c1 [ETHOXZOLAMIDE]	295
